This collection of values is drawn from paper PMC7115581.

- Test system: human embryonic lung (HEL) cells
- method: Cytotoxicity, inhibition of HEL cell growth
- Assay type: cell-based
- condition-notes: cytotoxic concentration required to reduce HEL cell growth by 50%; 3 days

- compound: "Nc1nc2c(ncn2COCCO)c(=O)[nH]1 [Acyclovir, acyclovir, reference compound]"
  CC50: "191 µM"

----------
- method: Cytotoxicity, inhibition of HEL cell growth
- Type: cell-based, human
- condition-notes: human, human embryonic lung (HEL) cells, CC50, cytotoxic concentration required to reduce HEL cell growth by 50%; 3 days

- compound: "Nc1nc2c(ncn2COCCO)c(=O)[nH]1 [Acyclovir, acyclovir, reference compound]"
  CC50 at 3 days, µM: 224

----------
- System: varicella zoster virus (VZV)
- method: microbe, parasite or virus in culture
- condition-notes: Human alphaherpesvirus 3, HEL, read-out: EC50 against VZV
readout-label: EC50

- molecule: "CC(=O)N(CCc1ccc(-c2ccccc2)cc1)CCc1cn(C)c2ccccc12 [Compound 17a]"
  target-under-test: "varicella zoster virus (VZV)"
  test-value: "1.7 to 3.6 µM"

----------
- Test system: human embryonic lung (HEL) cells
- condition-notes: Table 2, concentration that causes a microscopically detectable alteration of morphology
// Cytotoxicity MMC lookup, one value per entry

- compound: "CCCn1cc(CN2CCCCC2)c2cc(CNc3ccc(Cl)cc3)ccc21 [Compound 8a]"
  Cytotoxicity MMC: "20 µM"
- compound: "CC(=O)N(CCc1ccc(-c2ccccc2)cc1)CCc1cn(C)c2ccccc12 [Compound 17a]"
  Cytotoxicity MMC: "20 µM"
- compound: "CCCn1cc(CNCCc2ccc(-c3ccccc3)cc2)c2cc(CNc3ccc(Cl)cc3)ccc21 [Compound 8b]"
  Cytotoxicity MMC: "20 µM"
- compound: "Nc1ccn(C[C@@H](CO)OCP(=O)(O)O)c(=O)n1.O.O [Cidofovir, reference compound]"
  Cytotoxicity MMC: ">250 µM"
- compound: "CCCn1cc(CNCCc2ccc(-c3ccccc3)cc2)c2ccccc21 [Compound 4c]"
  Cytotoxicity MMC: "4 µM"
- compound: "CCCn1cc(CN2CCCCC2)c2cc(NC(=O)c3ccccc3)ccc21 [Compound 8c]"
  Cytotoxicity MMC: "100 µM"
- compound: "CCCn1cc(C(=O)c2ccc(Cl)cc2)c2ccccc21 [Compound 4a]"
  Cytotoxicity MMC: ">100 µM"
- compound: "Cn1cc(CCNCCc2ccc(-c3ccccc3)cc2)c2ccccc21 [Compound 16a]"
  Cytotoxicity MMC: ">4 µM"
- compound: "O=c1[nH]c(=O)n([C@H]2C[C@H](O)[C@@H](CO)O2)cc1/C=C/Br [Brivudin, brivudin, reference compound]"
  Cytotoxicity MMC: ">250 µM"
- compound: "Nc1nc2c(ncn2COCCO)c(=O)[nH]1 [Acyclovir, acyclovir, reference compound]"
  Cytotoxicity MMC: ">250 µM"
- compound: "COC(=O)c1ccc(CNCCc2cn(Cc3ccc(-c4ccccc4)cc3)c3ccccc23)cc1 [Compound 15]"
  Cytotoxicity MMC: "20 µM"
- compound: "CCCn1cc(CN2CCCCC2)c2ccccc21 [Compound 4b]"
  Cytotoxicity MMC: ">100 µM"
- compound: "c1ccc(-c2ccc(Cn3cc(CN4CCCCC4)c4ccccc43)cc2)cc1 [Compound 4d]"
  Cytotoxicity MMC: "20 µM"

----------
- System: varicella zoster virus (VZV)
- method: in vitro
- condition-notes: human
readout-label: selectivity ratio

- molecule: "CC(=O)N(CCc1ccc(-c2ccccc2)cc1)CCc1cn(C)c2ccccc12 [Compound 17a]"
  target-under-test: "varicella zoster virus (VZV)"
  test-value: "10 to 20"
